FYI, the data here is from ChEMBL document CHEMBL3352339.

zone of inhibition at 50 µg/mL: recorded values
Tested on: Aspergillus flavus
method: Antifungal activity against Aspergillus flavus at 50 ug/mL incubated for 3 days by agar well diffusion method
Type: functional
testConditions: 72 h, read-out: IZ
Starred links: 1 amine or outer side, 2 acyl side, 3 side chain; linkers in the order of their positions; H or OH if unused. Residues, ends and D or L forms follow the SMILES beside them. *: point of attachment. X1 = c1ccc2c(N3CCN(*)CC3)nsc2c1; NH(4-F-phenyl) = Fc1ccc(N*)cc1; X4 = COc1cccc(NC(=S)*)c1; Boc = CC(C)(C)OC(=O)*; CO = O=C([*:1])[*:2]
readout: zone of inhibition at 50 µg/mL (mm)

{"compound": "COc1cccc(NC(=S)NCC(=O)N[C@@H](Cc2ccccc2)C(=O)NCC(=O)N[C@H](C(=O)N2CCC[C@H]2C(=O)N2CCN(c3nsc4ccccc34)CC2)C(C)C)c1 (X4-GFGVP-X1)", "readout": "zone of inhibition at 50 µg/mL", "dataValue": 23}
{"compound": "CC(C)[C@H](NC(=O)CNC(=O)[C@H](Cc1ccccc1)NC(=O)CNC(=O)Nc1ccc(F)cc1)C(=O)N1CCC[C@H]1C(=O)N1CCN(c2nsc3ccccc23)CC1 ({NH(4-F-phenyl)-CO}-GFGVP-X1)", "readout": "zone of inhibition at 50 µg/mL", "dataValue": 31}
{"compound": "CC(C)[C@H](NC(=O)CNC(=O)[C@H](Cc1ccccc1)NC(=O)CNC(=O)OC(C)(C)C)C(=O)N1CCC[C@H]1C(=O)N1CCN(c2nsc3ccccc23)CC1 (Boc-GFGVP-X1)", "readout": "zone of inhibition at 50 µg/mL", "dataValue": 7}

----------
System: Aspergillus niger
method: Antifungal activity against Aspergillus niger at 50 ug/mL incubated for 3 days by agar well diffusion method
Format: functional
testConditions: 72 h, read-out: IZ
Starred links: 1 amine or outer side, 2 acyl side, 3 side chain; linkers in the order of their positions; H or OH if unused. Residues, ends and D or L forms follow the SMILES beside them. *: point of attachment. Thiocarbamoyl(N-2-FPh) = Fc1ccccc1NC(=S)*; NH(4-MeO-phenyl) = COc1ccc(N*)cc1; X1 = c1ccc2c(N3CCN(*)CC3)nsc2c1; NH(4-F-phenyl) = Fc1ccc(N*)cc1; NH(2-F-phenyl) = Fc1ccccc1N*; NH(3-MeOPh) = COc1cccc(N*)c1; X4 = COc1cccc(NC(=S)*)c1; X2 = Fc1ccc(NC(=S)*)cc1; X5 = COc1ccccc1NC(=S)*; Boc = CC(C)(C)OC(=O)*; CO = O=C([*:1])[*:2]; X6 = Fc1cccc(N*)c1; X3 = COc1ccccc1N*
# zone of inhibition at 50 µg/mL per entry

{"compound": "COc1cccc(NC(=S)NCC(=O)N[C@@H](Cc2ccccc2)C(=O)NCC(=O)N[C@H](C(=O)N2CCC[C@H]2C(=O)N2CCN(c3nsc4ccccc34)CC2)C(C)C)c1 (X4-GFGVP-X1)", "system": "Aspergillus niger", "unitName": "mm", "zone of inhibition at 50 µg/mL": 24}
{"compound": "COc1ccccc1NC(=O)NCC(=O)N[C@@H](Cc1ccccc1)C(=O)NCC(=O)N[C@H](C(=O)N1CCC[C@H]1C(=O)N1CCN(c2nsc3ccccc23)CC1)C(C)C ({X3-CO}-GFGVP-X1)", "system": "Aspergillus niger", "unitName": "mm", "zone of inhibition at 50 µg/mL": 24}
{"compound": "CC(C)[C@H](NC(=O)CNC(=S)Nc1ccccc1F)C(=O)NCC(=O)N[C@H](C(=O)N1CCC[C@H]1C(=O)N1CCN(c2nsc3ccccc23)CC1)C(C)C ({Thiocarbamoyl(N-2-FPh)}-GVGVP-X1)", "system": "Aspergillus niger", "unitName": "mm", "zone of inhibition at 50 µg/mL": 30}
{"compound": "COC(=O)Nc1nc2ccccc2[nH]1", "system": "Aspergillus niger", "unitName": "mm", "zone of inhibition at 50 µg/mL": 14}
{"compound": "CC(C)[C@H](NC(=O)CNC(=O)[C@H](Cc1ccccc1)NC(=O)CNC(=O)Nc1ccc(F)cc1)C(=O)N1CCC[C@H]1C(=O)N1CCN(c2nsc3ccccc23)CC1 ({NH(4-F-phenyl)-CO}-GFGVP-X1)", "system": "Aspergillus niger", "unitName": "mm", "zone of inhibition at 50 µg/mL": 30}
{"compound": "COc1cccc(NC(=O)NCC(=O)N[C@H](C(=O)NCC(=O)N[C@H](C(=O)N2CCC[C@H]2C(=O)N2CCN(c3nsc4ccccc34)CC2)C(C)C)C(C)C)c1 ({NH(3-MeOPh)-CO}-GVGVP-X1)", "system": "Aspergillus niger", "unitName": "mm", "zone of inhibition at 50 µg/mL": 15}
{"compound": "CC(C)[C@H](NC(=O)CNC(=O)[C@H](Cc1ccccc1)NC(=O)CNC(=O)Nc1ccccc1F)C(=O)N1CCC[C@H]1C(=O)N1CCN(c2nsc3ccccc23)CC1 ({NH(2-F-phenyl)-CO}-GFGVP-X1)", "system": "Aspergillus niger", "unitName": "mm", "zone of inhibition at 50 µg/mL": 29}
{"compound": "CC(C)[C@H](NC(=O)CNC(=O)OC(C)(C)C)C(=O)NCC(=O)N[C@H](C(=O)N1CCC[C@H]1C(=O)N1CCN(c2nsc3ccccc23)CC1)C(C)C (Boc-GVGVP-X1)", "system": "Aspergillus niger", "unitName": "mm", "zone of inhibition at 50 µg/mL": 5}
{"compound": "COc1ccccc1NC(=O)NCC(=O)N[C@H](C(=O)NCC(=O)N[C@H](C(=O)N1CCC[C@H]1C(=O)N1CCN(c2nsc3ccccc23)CC1)C(C)C)C(C)C ({X3-CO}-GVGVP-X1)", "system": "Aspergillus niger", "unitName": "mm", "zone of inhibition at 50 µg/mL": 23}
{"compound": "COc1ccccc1NC(=S)NCC(=O)N[C@@H](Cc1ccccc1)C(=O)NCC(=O)N[C@H](C(=O)N1CCC[C@H]1C(=O)N1CCN(c2nsc3ccccc23)CC1)C(C)C (X5-GFGVP-X1)", "system": "Aspergillus niger", "unitName": "mm", "zone of inhibition at 50 µg/mL": 24}
{"compound": "CC(C)[C@H](NC(=O)CNC(=O)Nc1cccc(F)c1)C(=O)NCC(=O)N[C@H](C(=O)N1CCC[C@H]1C(=O)N1CCN(c2nsc3ccccc23)CC1)C(C)C ({X6-CO}-GVGVP-X1)", "system": "Aspergillus niger", "unitName": "mm", "zone of inhibition at 50 µg/mL": 27}
{"compound": "COc1ccccc1NC(=S)NCC(=O)N[C@H](C(=O)NCC(=O)N[C@H](C(=O)N1CCC[C@H]1C(=O)N1CCN(c2nsc3ccccc23)CC1)C(C)C)C(C)C (X5-GVGVP-X1)", "system": "Aspergillus niger", "unitName": "mm", "zone of inhibition at 50 µg/mL": 20}
{"compound": "COc1cccc(NC(=S)NCC(=O)N[C@H](C(=O)NCC(=O)N[C@H](C(=O)N2CCC[C@H]2C(=O)N2CCN(c3nsc4ccccc34)CC2)C(C)C)C(C)C)c1 (X4-GVGVP-X1)", "system": "Aspergillus niger", "unitName": "mm", "zone of inhibition at 50 µg/mL": 16}
{"compound": "CC(C)[C@H](NC(=O)CNC(=O)Nc1ccc(F)cc1)C(=O)NCC(=O)N[C@H](C(=O)N1CCC[C@H]1C(=O)N1CCN(c2nsc3ccccc23)CC1)C(C)C ({NH(4-F-phenyl)-CO}-GVGVP-X1)", "system": "Aspergillus niger", "unitName": "mm", "zone of inhibition at 50 µg/mL": 33}
{"compound": "COc1ccc(NC(=O)NCC(=O)N[C@H](C(=O)NCC(=O)N[C@H](C(=O)N2CCC[C@H]2C(=O)N2CCN(c3nsc4ccccc34)CC2)C(C)C)C(C)C)cc1 ({NH(4-MeO-phenyl)-CO}-GVGVP-X1)", "system": "Aspergillus niger", "unitName": "mm", "zone of inhibition at 50 µg/mL": 24}
{"compound": "CC(C)[C@H](NC(=O)CNC(=S)Nc1ccc(F)cc1)C(=O)NCC(=O)N[C@H](C(=O)N1CCC[C@H]1C(=O)N1CCN(c2nsc3ccccc23)CC1)C(C)C (X2-GVGVP-X1)", "system": "Aspergillus niger", "unitName": "mm", "zone of inhibition at 50 µg/mL": 35}
{"compound": "COc1cccc(NC(=O)NCC(=O)N[C@@H](Cc2ccccc2)C(=O)NCC(=O)N[C@H](C(=O)N2CCC[C@H]2C(=O)N2CCN(c3nsc4ccccc34)CC2)C(C)C)c1 ({NH(3-MeOPh)-CO}-GFGVP-X1)", "system": "Aspergillus niger", "unitName": "mm", "zone of inhibition at 50 µg/mL": 20}
{"compound": "CC(C)[C@H](NC(=O)CNC(=O)[C@H](Cc1ccccc1)NC(=O)CNC(=O)OC(C)(C)C)C(=O)N1CCC[C@H]1C(=O)N1CCN(c2nsc3ccccc23)CC1 (Boc-GFGVP-X1)", "system": "Aspergillus niger", "unitName": "mm", "zone of inhibition at 50 µg/mL": 6}
{"compound": "CC(C)[C@H](NC(=O)CNC(=O)[C@H](Cc1ccccc1)NC(=O)CNC(=S)Nc1ccccc1F)C(=O)N1CCC[C@H]1C(=O)N1CCN(c2nsc3ccccc23)CC1 ({Thiocarbamoyl(N-2-FPh)}-GFGVP-X1)", "system": "Aspergillus niger", "unitName": "mm", "zone of inhibition at 50 µg/mL": 31}
{"compound": "CC(C)[C@H](NC(=O)CNC(=O)[C@H](Cc1ccccc1)NC(=O)CNC(=O)Nc1cccc(F)c1)C(=O)N1CCC[C@H]1C(=O)N1CCN(c2nsc3ccccc23)CC1 ({X6-CO}-GFGVP-X1)", "system": "Aspergillus niger", "unitName": "mm", "zone of inhibition at 50 µg/mL": 30}
